Data provenance: patent US20210017293

Biological target: T1, human TNFR1 (human, UniProt P19438)
T1 chain: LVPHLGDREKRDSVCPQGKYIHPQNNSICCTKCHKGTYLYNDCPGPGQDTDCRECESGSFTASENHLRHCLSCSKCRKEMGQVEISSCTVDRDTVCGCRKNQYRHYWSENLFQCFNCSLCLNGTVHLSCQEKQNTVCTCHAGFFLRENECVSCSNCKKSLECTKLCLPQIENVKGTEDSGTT
Assay: ELISA
For each record, write down the corresponding pEC50.
Value format note: pEC50 is -log10 of concentration (mol/L); just state the number.

[Q] Reported pEC50, binder DOM1H-131-206 C-terminal ASTKG (antibody, V domains shown) VH: EVQLLESGGGLVQPGGSLRLSCAASGFTFAHETMVWVRQAPGKGLEWVSHIPPDGQDPFYADSVKGRFTISRDNSKNTLYLQMNSLRAEDTAVYHCALLPKRGPWFDYWGQGTLVTVSS : ____
[A] 8.95

[Q] And for DOM1H-131-206 P14A (antibody, V domains shown) VH: EVQLLESGGGLVQAGGSLRLSCAASGFTFAHETMVWVRQAPGKGLEWVSHIPPDGQDPFYADSVKGRFTISRDNSKNTLYLQMNSLRAEDTAVYHCALLPKRGPWFDYWGQGTLVTVSS ?
[A] 8.91

[Q] And for DOM1H-131-206 P14A, G44E (antibody, V domains shown) VH: EVQLLESGGGLVQAGGSLRLSCAASGFTFAHETMVWVRQAPGKELEWVSHIPPDGQDPFYADSVKGRFTISRDNSKNTLYLQMNSLRAEDTAVYHCALLPKRGPWFDYWGQGTLVTVSS ?
[A] 8.69

[Q] And for DOM1H-131-206 C-terminal A (antibody, V domains shown) VH: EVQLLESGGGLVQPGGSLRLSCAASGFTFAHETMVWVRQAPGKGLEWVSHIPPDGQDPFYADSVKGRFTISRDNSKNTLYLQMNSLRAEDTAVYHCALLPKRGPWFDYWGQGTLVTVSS ?
[A] 8.92
